Numbers sourced from patent US12606559B2.

Assay: In vivo pharmacokinetic analysis in minipig, iv
Set-up: species or system male Göttingen minipigs
Settings: male, Göttingen, minipig, whole blood; iv 1 mg/kg, blood; read-out: iv PK minipig: Cl
metric: clearance (mL/min/kg)
Value expressed in mL/min/kg; do not type the unit.

In [3]: df
Out[3]:
                           structure_string  measured_value
0  CC1CCN(C(=O)C[C@H]2C[C@@H](Nc3c(C#N)cnc4[nH]ccc34)C2)CC1              27

Now for the compound whose clearance we want.
Problem: Field request: clearance | item: `CC1(C)CCN(C(=O)C[C@H]2C[C@@H](Nc3c(C#N)cnc4[nH]ccc34)C2)CC1`
Solution: 31
